- Tested on: SH-SY5Y
- procedureDetails: Cytotoxicity against human SH-SY5Y cells assessed as reduction in cell viability at 25 uM incubated for 24 hrs by Celltiter-blue assay
- Format: cell-based
metric: Activity

# example entries with known answers
>  <moleculeSmiles>
O=C1C=C(NCCc2ccccc2)C(=O)c2ccccc21

>  <Activity>
Toxic

$$$$
>  <moleculeSmiles>
CSC1=C(Nc2ccc(F)c(C(F)(F)F)c2)C(=O)c2ccccc2C1=O

>  <Activity>
Toxic

$$$$
>  <moleculeSmiles>
O=C1C=C(NCCCCO)C(=O)c2ccccc21

>  <Activity>
Toxic

$$$$
>  <moleculeSmiles>
COC1=C(OC)C(=O)C(CCCCCCCCCCO)=C(C)C1=O

>  <Activity>
Toxic

$$$$
>  <moleculeSmiles>
O=C1C(Cl)=C(Nc2cccc(C(F)(F)F)c2)C(=O)c2ccccc21

>  <Activity>
Toxic

$$$$
>  <moleculeSmiles>
CC1=C(Sc2ccccc2)C(=O)c2ccccc2C1=O

>  <Activity>
Toxic

$$$$
>  <moleculeSmiles>
COC1=C(Nc2ccc(F)c(C(F)(F)F)c2)C(=O)c2ccccc2C1=O

>  <Activity>
Non-Toxic

$$$$
>  <moleculeSmiles>
CCCCC1=C(C)C(=O)c2ccccc2C1=O

>  <Activity>
Toxic

$$$$

Inquiry: // fetch Activity given entry `CSC1=C(Nc2cccc(C(F)(F)F)c2)C(=O)c2ccccc2C1=O`
Reply text: Non-Toxic

Inquiry: Specify measured Activity for `O=C1C=C(NCc2ccccc2)C(=O)c2ccccc21` .
Reply text: Toxic

Inquiry: Determine its reported Activity: `COC(=O)c1ccc(NC2=C(Cl)C(=O)c3ccccc3C2=O)cc1`
Reply text: Toxic

* * *

- System: SH-SY5Y
- procedureDetails: Cytotoxicity against human SH-SY5Y cells assessed as reduction in cell viability at 25 uM incubated for 24 hrs by Celltiter-blue assay
- Type: cell-based
metric: Activity

# annotated cases, reported Activity shown
>  <moleculeSmiles>
O=C1C=C(Nc2ccc(F)c(C(F)(F)F)c2)C(=O)c2ccccc21

>  <recordedMeasurement>
Non-Toxic

$$$$
>  <moleculeSmiles>
O=C1C(Br)=C(NCCc2ccccn2)C(=O)c2ccccc21

>  <recordedMeasurement>
Toxic

$$$$
>  <moleculeSmiles>
CNC1=C(Nc2ccc(F)c(C(F)(F)F)c2)C(=O)c2ccccc2C1=O

>  <recordedMeasurement>
Non-Toxic

$$$$
>  <moleculeSmiles>
CCSC1=C(Nc2cccc(C(F)(F)F)c2)C(=O)c2ccccc2C1=O

>  <recordedMeasurement>
Toxic

$$$$
>  <moleculeSmiles>
CCNC1=C(Nc2ccccc2)C(=O)c2ccccc2C1=O

>  <recordedMeasurement>
Non-Toxic

$$$$

Inquiry: Given the compound `COC1=C(Nc2ccccc2)C(=O)c2ccccc2C1=O` , write its reported Activity.
Reply text: Non-Toxic

Inquiry: Output Activity of `O=C1C(Cl)=C(Nc2ccc(Nc3ccccc3)cc2)C(=O)c2ccccc21`
Reply text: Toxic

* * *

- Test system: HepG2
- procedureDetails: Cytotoxicity against human HepG2 cells assessed as cell reduction in cell viability at 25 uM incubated for 24 hrs by Celltiter-blue assay
- Format: cell-based
- cond: hepg2, 24 h
metric: Activity

Before answering, review these 7 worked examples.
>  <moleculeSmiles>
O=C1C(Nc2cccc(C(F)(F)F)c2)=C(SC(F)(F)F)C(=O)c2ccccc21

>  <metric>
Activity

>  <recordedMeasurement>
Toxic

$$$$
>  <moleculeSmiles>
CCSC1=C(Nc2cccc(C(F)(F)F)c2)C(=O)c2ccccc2C1=O

>  <metric>
Activity

>  <recordedMeasurement>
Toxic

$$$$
>  <moleculeSmiles>
COC(=O)c1ccc(NC2=C(Cl)C(=O)c3ccccc3C2=O)cc1

>  <metric>
Activity

>  <recordedMeasurement>
Toxic

$$$$
>  <moleculeSmiles>
CC(C)SC1=C(Nc2cccc(C(F)(F)F)c2)C(=O)c2ccccc2C1=O

>  <metric>
Activity

>  <recordedMeasurement>
Toxic

$$$$
>  <moleculeSmiles>
O=C1C(Cl)=C(Nc2ccc(Nc3ccccc3)cc2)C(=O)c2ccccc21

>  <metric>
Activity

>  <recordedMeasurement>
Toxic

$$$$
>  <moleculeSmiles>
CSC1=C(Nc2ccc(F)c(C(F)(F)F)c2)C(=O)c2ccccc2C1=O

>  <metric>
Activity

>  <recordedMeasurement>
Toxic

$$$$
>  <moleculeSmiles>
O=C1C(Cl)=C(Nc2cccc(C(F)(F)F)c2)C(=O)c2ccccc21

>  <metric>
Activity

>  <recordedMeasurement>
Toxic

$$$$

With those in mind, consider the next compound.
Inquiry: Give the value of Activity reported for the following: `O=C1C(Nc2ccc(F)c(C(F)(F)F)c2)=C(SC(F)(F)F)C(=O)c2ccccc21`
Reply text: Toxic

* * *

In this section, each of the compounds is paired with its reported viability at 24 h, 25 µM.
- procedureDetails: Cytotoxicity against human HepG2 cells assessed as cell viability at 25 uM incubated for 24 hrs by Celltiter-blue assay relative to control
- Type: cell-based
- cond: read-out: Activity
Numbers only; they are read as %.

>  <moleculeSmiles>
CSC1=C(Nc2ccc(F)c(C(F)(F)F)c2)C(=O)c2ccccc2C1=O

>  <metric>
viability at 24 h, 25 µM

>  <recordedMeasurement>
76.9

$$$$

Inquiry: Tell me its viability at 24 h, 25 µM given `O=C1C=C(Nc2ccc(F)c(C(F)(F)F)c2)C(=O)c2ccccc21` as the entry.
Reply text: 35.6

Inquiry: Return reported viability at 24 h, 25 µM. Input compound: `CNC1=C(Nc2ccc(F)c(C(F)(F)F)c2)C(=O)c2ccccc2C1=O`
Reply text: 95.8

* * *

- systemName: NAD(P)H dehydrogenase [quinone] 1 (Homo sapiens) (UniProt P15559)
- Sequence (P15559 whole entry): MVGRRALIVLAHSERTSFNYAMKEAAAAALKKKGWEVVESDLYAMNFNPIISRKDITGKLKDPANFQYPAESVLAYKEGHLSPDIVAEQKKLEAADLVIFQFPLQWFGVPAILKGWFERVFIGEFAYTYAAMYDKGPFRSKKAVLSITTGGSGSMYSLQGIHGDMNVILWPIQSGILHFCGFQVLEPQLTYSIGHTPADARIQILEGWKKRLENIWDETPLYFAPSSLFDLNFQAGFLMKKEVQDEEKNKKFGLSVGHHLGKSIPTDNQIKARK
- procedureDetails: Substrate activity at NQO1 in human HepG2 cells assessed as reduction in cell viability in presence of NQO1 inhibitor dicoumarol by WST-1 assay
- Assay type: cell-based
Active and inactive are the calls of the source. No cut-off for these calls is given here.
metric: Activity

>  <moleculeSmiles>
COC1=C(Nc2cccc(C(F)(F)F)c2)C(=O)c2ccccc2C1=O

>  <Activity>
inactive

$$$$
>  <moleculeSmiles>
O=C1C(Cl)=C(Nc2cccc(O)c2)C(=O)c2ccccc21

>  <Activity>
inactive

$$$$
>  <moleculeSmiles>
COC1=C(Nc2ccc(F)c(C(F)(F)F)c2)C(=O)c2ccccc2C1=O

>  <Activity>
inactive

$$$$
>  <moleculeSmiles>
CC1=C(Nc2ccc(F)c(C(F)(F)F)c2)C(=O)c2ccccc2C1=O

>  <Activity>
inactive

$$$$
>  <moleculeSmiles>
CSC1=C(Nc2ccc(F)c(C(F)(F)F)c2)C(=O)c2ccccc2C1=O

>  <Activity>
inactive

$$$$

Inquiry: Given the compound `O=C1C(Nc2ccc(F)c(C(F)(F)F)c2)=C(SC(F)(F)F)C(=O)c2ccccc21` , write its reported Activity.
Reply text: inactive

Inquiry: Provide measured Activity value, entry: `COC1=C(Nc2cc(C(F)(F)F)ccc2F)C(=O)c2ccccc2C1=O`
Reply text: inactive

Inquiry: Retrieve Activity measured for `CCSC1=C(Nc2cccc(C(F)(F)F)c2)C(=O)c2ccccc2C1=O` and print it.
Reply text: inactive

* * *

- System: HepG2
- procedureDetails: Cytotoxicity against human HepG2 cells assessed as reduction in cell viability incubated for 24 hrs by Celltiter-blue assay
- Type: cell-based
- cond: HepG2, 24 h
metric: IC50 (µM)
Use µM as the unit, but write only the number.

>  <moleculeSmiles>
CSC1=C(Nc2ccc(F)c(C(F)(F)F)c2)C(=O)c2ccccc2C1=O

>  <IC50, µM>
30.5

$$$$

With those in mind, consider the next compound.
Inquiry: Hello, please tell me recorded IC50 for this one: `COC1=C(OC)C(=O)C(CCCCCCCCCCO)=C(C)C1=O`
Reply text: 64.5

* * *

- Test system: HepG2
- procedureDetails: Suppression of rotenone-induced ATP depletion in human HepG2 cells assessed as rescue of ATP level at 5 uM incubated for 2 hrs in presence of complex III inhibitor antimycin by Celltiter-Glo assay
- Assay type: functional, cell-based
Activity calls are given as the source filed them. The calls are words filed in the database; no cut-off is given here.
metric: Activity

>  <moleculeSmiles>
CSC1=C(Nc2ccc(F)c(C(F)(F)F)c2)C(=O)c2ccccc2C1=O

>  <recordedMeasurement>
inactive

$$$$
>  <moleculeSmiles>
CC1=C(Nc2ccc(F)c(C(F)(F)F)c2)C(=O)c2ccccc2C1=O

>  <recordedMeasurement>
inactive

$$$$
>  <moleculeSmiles>
COC1=C(OC)C(=O)C(CCCCCCCCCCO)=C(C)C1=O

>  <recordedMeasurement>
inactive

$$$$
>  <moleculeSmiles>
COC1=C(Nc2ccc(F)c(C(F)(F)F)c2)C(=O)c2ccccc2C1=O

>  <recordedMeasurement>
inactive

$$$$

* * *

- procedureDetails: Cytotoxicity against human HepG2 cells assessed as cell viability at 25 uM incubated for 24 hrs by Celltiter-blue assay relative to control
- Assay type: cell-based
- cond: read-out: Activity
Each entry below carries its recorded viability at 24 h, 25 µM.
Express the result in % but write the number alone.

Solved entries:
>  <compound>
CC1=C(Nc2ccc(F)c(C(F)(F)F)c2)C(=O)c2ccccc2C1=O

>  <measurementUnits>
%

>  <recordedMeasurement>
101

$$$$
>  <compound>
COC1=C(Nc2ccc(F)c(C(F)(F)F)c2)C(=O)c2ccccc2C1=O

>  <measurementUnits>
%

>  <recordedMeasurement>
96.5

$$$$
>  <compound>
O=C1C(Nc2ccc(F)c(C(F)(F)F)c2)=C(SC(F)(F)F)C(=O)c2ccccc21

>  <measurementUnits>
%

>  <recordedMeasurement>
65.8

$$$$
>  <compound>
COC1=C(OC)C(=O)C(CCCCCCCCCCO)=C(C)C1=O [IDEBENONE]

>  <measurementUnits>
%

>  <recordedMeasurement>
92.8

$$$$

Let us examine a further case.
Inquiry: Please give measured viability at 24 h, 25 µM of the following entry: `O=C1C(Cl)=C(Nc2ccc(F)c(C(F)(F)F)c2)C(=O)c2ccccc21`
Reply text: 65.8
